These measurements were taken from PubChem BioAssay (NCI).

- Tested on: MCF7 breast
- test.protocol: NCI-60 one-dose screen, 48 h (100 = growth as untreated, 0 = no growth, -100 = all killed)
- experimental.context: 10 µM unless noted
The panel holds about 83,000 compounds, 20% with a hit somewhere; the sample as a whole holds those more often.
attribute.measured: growth (%)
Numbers only; they are read as %.

Check out these entries, answers already filled in.
{"compound": "N#CC(C#N)N=Nc1cc(Cl)ccc1Cl", "growth [%]": 93.7}
{"compound": "COc1ccc(C(=O)CC(c2ccccc2)C(C#N)c2ccccc2)cc1 (centres undefined)", "growth [%]": 93.4}
{"compound": "CCCCOC(=O)/C=C\\C(=O)NC(N)=O", "growth [%]": 81.1}
{"compound": "CC(=O)OC(C)C(=O)NCC(C)O (centres undefined)", "growth [%]": 96.9}
{"compound": "Cc1cc(-c2ccc(N=Nc3ccc4c(S(=O)(=O)O)cc(S(=O)(=O)O)c(N)c4c3O)c(C)c2)ccc1N=Nc1ccc2c(S(=O)(=O)O)cc(S(=O)(=O)O)c(N)c2c1O", "growth [%]": 103}
{"compound": "CC(C)C(C)(C)c1ccc(O)cc1", "growth [%]": 109}
{"compound": "CCc1cc(C)cc(O)c1", "growth [%]": 98.3}
{"compound": "ClCCOCCOc1ccc(C2CCCCC2)cc1", "growth [%]": 102}

For record "CC(C)NC(=O)N/C=C(\C#N)C(N)=O" the listed growth is 102
